test system: UO-31; experiment: NCI tumour cell line growth inhibition, 48 h
Activity calls are given as the source filed them. Cut-off read from the data, not from the text of the source: active = GI50 up to about 1.1 µM and inactive = higher.
Classes used: active, inactive

[[record]]
molecule = "COc1ccc2c(c1)nc1n2C(c2c(Cl)cccc2Cl)SC1 (configuration not stated)"
target_under_test = "UO-31"
group_label = "inactive"

[[record]]
molecule = "CSC(=S)Nc1cccc(C)n1"
target_under_test = "UO-31"
group_label = "inactive"

[[record]]
molecule = "COc1cc2c(c(O)c1C)C(=O)CC(c1ccccc1)O2 (configuration not stated)"
target_under_test = "UO-31"
group_label = "inactive"

[[record]]
molecule = "COc1cc(NS(C)(=O)=O)ccc1N1Cc2c[nH]c3ccc4nc(C)cc1c4c23"
target_under_test = "UO-31"
group_label = "inactive"

[[record]]
molecule = "CC1=CP(=O)(OC(C)C)C=C(C)C1=C(Cl)Cl (configuration not stated)"
target_under_test = "UO-31"
group_label = "inactive"

[[record]]
molecule = "COC(=O)c1cncc2c1CC1C3(C(=O)OC)C=NC(C4C(CO)=CCC43)C21C (configuration not stated)"
target_under_test = "UO-31"
group_label = "inactive"

[[record]]
molecule = "C[N+](C)(C)CC1CCCC/C1=N\\O (configuration not stated)"
target_under_test = "UO-31"
group_label = "inactive"

[[record]]
molecule = "C#C[C@]1(O)[C@@H](CO)O[C@@H](n2ccc(=O)[nH]c2=O)[C@@H]1O"
target_under_test = "UO-31"
group_label = "active"

[[record]]
molecule = "c1ccc2c(c1)[nH]c1nc3cc(-c4ccc5nc6c(nc5c4)[nH]c4ccccc46)ccc3nc12"
target_under_test = "UO-31"
group_label = "inactive"

[[record]]
molecule = "CCCCCCCCCCCC(=O)OCCOCCOCCOCCOCCOCc1ccccc1"
target_under_test = "UO-31"
group_label = "inactive"

[[record]]
molecule = "Nc1nc(Cl)cc(NCC2(CO)CC(Cc3ccccc3)C2)n1 (configuration not stated)"
target_under_test = "UO-31"
group_label = "inactive"

[[record]]
molecule = "O=C1CCCc2ccc3c(c21)CC1(Cc2cc4c(cc2C1)CCCC4)C3"
target_under_test = "UO-31"
group_label = "inactive"

[[record]]
molecule = "CC(=O)C1=NN(c2ccccc2)C2(S1)SC(c1ccccc1)(c1ccccc1)c1ccccc12 (configuration not stated)"
target_under_test = "UO-31"
group_label = "inactive"

[[record]]
molecule = "O=C1OC(CS(=O)(=O)c2ccccc2)CC1O (configuration not stated)"
target_under_test = "UO-31"
group_label = "inactive"

[[record]]
molecule = "COc1cc2nc(-c3cccc(N(C)C)c3)cc(O)c2cc1OC"
target_under_test = "UO-31"
group_label = "inactive"

[[record]]
molecule = "CCCP1(=O)C=C(C)C(=C(Cl)Cl)C(C)=C1 (configuration not stated)"
target_under_test = "UO-31"
group_label = "inactive"

[[record]]
molecule = "CC1CC(=O)C(CC(=O)O)[C@H]1C(C(=O)C(=O)Nc1cc(Cl)ccc1Cl)[N+](=O)[O-] (some centres not stated)"
target_under_test = "UO-31"
group_label = "inactive"

[[record]]
molecule = "CC(NC(=O)Cc1ccccc1)NC(=O)C(C)C(=O)Nc1ccccc1 (configuration not stated)"
target_under_test = "UO-31"
group_label = "inactive"

[[record]]
molecule = "CC1=Nc2ccccc2SC(c2c(Cl)cccc2Cl)C1 (configuration not stated)"
target_under_test = "UO-31"
group_label = "inactive"

[[record]]
molecule = "Brc1ccc(C[P+]2(c3ccccc3)CCCCC2)cc1.[O-][Cl+3]([O-])([O-])[O-]"
target_under_test = "UO-31"
group_label = "inactive"

[[record]]
molecule = "c1coc(C2=Nc3cccc4cccc(c34)N2)c1"
target_under_test = "UO-31"
group_label = "inactive"

[[record]]
molecule = "[O-][Cl+3]([O-])([O-])[O-].c1ccc(-c2[o+]c(-c3ccccc3)c(-c3ccccc3)c(-c3ccccc3)c2-c2ccccc2)cc1"
target_under_test = "UO-31"
group_label = "inactive"

[[record]]
molecule = "CC[C@@H]1CC[C@@H]2[C@H](CC[C@]3(C)[C@@H](O[N+](=O)[O-])CC[C@@H]23)[C@H]1C(C)=O"
target_under_test = "UO-31"
group_label = "inactive"

[[record]]
molecule = "O=C1c2cccnc2S(=O)(=O)N1c1ccc(Oc2ccccc2)cc1"
target_under_test = "UO-31"
group_label = "inactive"

[[record]]
molecule = "COc1ccc(N2C(=O)C3c4[nH]c5ccccc5c4C4CC(C)(C)CC(C)(C)C4C3C2=O)cc1 (configuration not stated)"
target_under_test = "UO-31"
group_label = "inactive"

[[record]]
molecule = "Cc1cccc2c1CC(C1OC(=O)c3ccccc31)C2=O (configuration not stated)"
target_under_test = "UO-31"
group_label = "inactive"

[[record]]
molecule = "O=C1c2ccccc2C(=O)N1c1nc(-c2ccc(Cl)cc2)cc(N2N=C(c3ccc(Br)cc3)CC2c2ccccc2)n1 (configuration not stated)"
target_under_test = "UO-31"
group_label = "inactive"

[[record]]
molecule = "Cc1cc(O)nc(NNC(C#N)c2cccc([N+](=O)[O-])c2)n1 (configuration not stated)"
target_under_test = "UO-31"
group_label = "inactive"

[[record]]
molecule = "Cc1cc(N2CCCCC2)nc2ccc(Cc3ccc4nc(N5CCCCC5)cc(C)c4c3)cc12"
target_under_test = "UO-31"
group_label = "inactive"

[[record]]
molecule = "Nc1ccc(O)c2c1C(=O)c1c(N)ccc(O)c1C2=O"
target_under_test = "UO-31"
group_label = "inactive"

[[record]]
molecule = "COc1cc(/C=C/C(=O)N[C@@H]2C(=O)N3[C@@H]2SC(C)(C)[C@@H]3C(=O)O)cc(OC)c1OC"
target_under_test = "UO-31"
group_label = "inactive"

[[record]]
molecule = "CS/C(=N\\S(=O)(=O)c1ccc(Cl)cc1)NCCN/C(=N/S(=O)(=O)c1ccc(Cl)cc1)SC"
target_under_test = "UO-31"
group_label = "inactive"

[[record]]
molecule = "CC1=C2C(=O)c3ccccc3C(=O)[C@H]2[C@H]2CCO[C@H]2O1"
target_under_test = "UO-31"
group_label = "inactive"

[[record]]
molecule = "N#CCC(=O)Nc1cccc(C(F)(F)F)c1"
target_under_test = "UO-31"
group_label = "inactive"

[[record]]
molecule = "COC(=O)c1c(O)ccc2c1c1c(n2-c2ccc(OC)cc2)C(=O)c2ccccc2C1=O"
target_under_test = "UO-31"
group_label = "inactive"

[[record]]
molecule = "Cc1nnc2c3nnc(C)n3c3ccccc3n12"
target_under_test = "UO-31"
group_label = "inactive"

[[record]]
molecule = "CC(C)C1CNC2N1C(=O)C2(C)OCc1ccccc1 (configuration not stated)"
target_under_test = "UO-31"
group_label = "inactive"

[[record]]
molecule = "COc1cc(C2S/C(=C/c3ccccc3)C(=O)N2Cc2ccccc2)cc(OC)c1OC (configuration not stated)"
target_under_test = "UO-31"
group_label = "inactive"

[[record]]
molecule = "C#CCOC(=O)C=[N+]=[N-]"
target_under_test = "UO-31"
group_label = "inactive"

[[record]]
molecule = "Cc1ccc(NC(=O)CCCC(=O)CC(=O)c2ccc(Br)cc2)cc1"
target_under_test = "UO-31"
group_label = "inactive"

[[record]]
molecule = "Clc1ccc(OCc2nnc3n2N=C(c2ccccc2)CS3)c(Cl)c1"
target_under_test = "UO-31"
group_label = "inactive"

[[record]]
molecule = "COc1ccccc1-n1c(C)nc2ccccc2c1=O"
target_under_test = "UO-31"
group_label = "inactive"

